Quick reference for CC50 at 72 h among some compounds
# test details: Cytotoxicity against THP-1 host cells
# Assay type: cell-based, human
# run conditions: human, PMA-treated THP-1 monocytic cells infected with the parasite; THP-1 cells, duplicates; read-out: THP-1 cell CC50 ± SD
measurement type: CC50 at 72 h (µM)

compound	reported measurement
CCCCCCCCCCCCCCCC(=O)N1CCC[C@H]1COP(=O)([O-])OCC[N+](C)(C)C [Compound 1e]	15.8
CCCCCCCCCCCCCCCC(=O)N1CCC[C@@H]1COP(=O)([O-])OCC[N+](C)(C)C [Compound 1a]	25.3
CCCCCCCCCCCCCCCCOP(=O)([O-])OCC[N+](C)(C)C [Miltefosine, miltefosine, reference compound]	40.8
CCCCCCCC/C=C\CCCCCCCCCCCCOP(=O)([O-])OCC[N+](C)(C)C [Erufosine, erucylphosphocholine, reference compound]	3.94

###

Quick reference for Selectivity index among some molecules
# Test system: THP-1 cells
# test details: Cytotoxicity against THP-1 host cells
# Type: cell-based, human
# run conditions: CC50 THP-1 divided by IC50 intracellular L. donovani
measurement type: Selectivity index

molecule	measurement target	reported measurement
CCCCCCCCCCCCCCCC(=O)N1CCC[C@H]1COP(=O)([O-])OCC[N+](C)(C)C	THP-1 cells	1.1
CCCCCCCCCCCCCCCC(=O)N1CCC[C@@H]1COP(=O)([O-])OCC[N+](C)(C)C	THP-1 cells	2.2
CCCCCCCC/C=C\CCCCCCCCCCCCOP(=O)([O-])OCC[N+](C)(C)C [Erufosine, erucylphosphocholine, reference compound]	THP-1 cells	1.1
CCCCCCCCCCCCCCCCOP(=O)([O-])OCC[N+](C)(C)C [Miltefosine, miltefosine, reference compound]	THP-1 cells	16.0

###

# test details: Cytotoxicity against HEK293T cells (resazurin)
# Type: cell-based
# run conditions: human, duplicates, read-out: HEK293T CC50 ± SD
Quick reference for CC50 at 3 days among some molecules

molecule	relation qualifier	CC50 at 3 days [µM]
CCCCCCCCCCCCCCCCOP(=O)([O-])OCC[N+](C)(C)C [Miltefosine, miltefosine, reference compound]	>	200
CCCCCCCC/C=C\CCCCCCCCCCCCOP(=O)([O-])OCC[N+](C)(C)C [Erufosine, erucylphosphocholine, reference compound]	=	40.8
CCCCCCCCCCCCCCCC(=O)N1CCC[C@@H]1COP(=O)([O-])OCC[N+](C)(C)C [Compound 1a]	=	30.6
CCCCCCCCCCCCCCCC(=O)N1CCC[C@H]1COP(=O)([O-])OCC[N+](C)(C)C [Compound 1e]	=	45.1

###

# Test system: L. donovani promastigotes
# test details: Growth inhibition of L. donovani promastigotes (resazurin-based assay)
# Format: cell-based, Leishmania donovani
# run conditions: Leishmania donovani, 72 h; 50 µM, incubation 3 days, relative to control; read-out: % Inhibition at 50 µM concentration
Quick reference for inhibition at 50 µM among some compounds
measurement type: inhibition at 50 µM (%)

compound	measurement type	reported measurement
CCCCCC/C=C\CCCCCCCC(=O)N1CC[C@@H](OP(=O)([O-])OCC[N+](C)(C)C)C1	inhibition at 50 µM	90
CCCCC/C=C\C/C=C\CCCCCCCC(=O)N1CC[C@H](COP(=O)([O-])OCC[N+](C)(C)C)C1	inhibition at 50 µM	101
CCCCCCCC/C=C\CCCCCCCCCCCC(=O)N1CCC[C@H]1COP(=O)([O-])OCC[N+](C)(C)C	inhibition at 50 µM	109
CCCCCCCC/C=C\CCCCCCCC(=O)N1CC[C@@H](OP(=O)([O-])OCC[N+](C)(C)C)C1	inhibition at 50 µM	106
CCCCCCCC/C=C\CCCCCCCCCCCC(=O)N1CC[C@@H](OP(=O)([O-])OCC[N+](C)(C)C)C1	inhibition at 50 µM	104
CCCCCCCC/C=C\CCCCCCCCCCCCOP(=O)([O-])OCC[N+](C)(C)C [Erufosine, erucylphosphocholine, reference compound]	inhibition at 50 µM	108
CC/C=C\C/C=C\C/C=C\CCCCCCCC(=O)N1CC[C@H](COP(=O)([O-])OCC[N+](C)(C)C)C1	inhibition at 50 µM	9
CCCCCCCC/C=C\CCCCCCCCCCCC(=O)N1CC[C@H](COP(=O)([O-])OCC[N+](C)(C)C)C1	inhibition at 50 µM	109
CCCCCCCCCCCCCCCC(=O)N1CCC[C@H]1COP(=O)([O-])OCC[N+](C)(C)C	inhibition at 50 µM	107
CCCCCCCCCCCCCCCC(=O)N1CC[C@@H](OP(=O)([O-])OCC[N+](C)(C)C)C1	inhibition at 50 µM	109
CC/C=C\C/C=C\C/C=C\CCCCCCCC(=O)N1CCC[C@H]1COP(=O)([O-])OCC[N+](C)(C)C	inhibition at 50 µM	1
CCCCCC/C=C\CCCCCCCC(=O)N1CCC[C@@H]1COP(=O)([O-])OCC[N+](C)(C)C	inhibition at 50 µM	109
CCCCCC/C=C\CCCCCCCC(=O)N1CC[C@H](COP(=O)([O-])OCC[N+](C)(C)C)C1	inhibition at 50 µM	98
CCCCCCCC/C=C\CCCCCCCC(=O)N1CC[C@H](COP(=O)([O-])OCC[N+](C)(C)C)C1	inhibition at 50 µM	107
CCCCCCCCCCCCCCCC(=O)N1CCC[C@@H]1COP(=O)([O-])OCC[N+](C)(C)C	inhibition at 50 µM	108
CCCCCCCC/C=C\CCCCCCCC(=O)N1CCC[C@@H]1COP(=O)([O-])OCC[N+](C)(C)C	inhibition at 50 µM	51
CCCCC/C=C\C/C=C\CCCCCCCC(=O)N1CC[C@@H](OP(=O)([O-])OCC[N+](C)(C)C)C1	inhibition at 50 µM	69
CCCCCCCC/C=C\CCCCCCCC(=O)N1CCC[C@H]1COP(=O)([O-])OCC[N+](C)(C)C	inhibition at 50 µM	108
CCCCCCCC/C=C\CCCCCCCCCCCC(=O)N1CCC[C@@H]1COP(=O)([O-])OCC[N+](C)(C)C	inhibition at 50 µM	108
CCCCCCCCCCCCCCCCOP(=O)([O-])OCC[N+](C)(C)C [Miltefosine, miltefosine, reference compound]	inhibition at 50 µM	100
CCCCCCCCCCCCCCCC(=O)N1CC[C@H](COP(=O)([O-])OCC[N+](C)(C)C)C1	inhibition at 50 µM	108
CC/C=C\C/C=C\C/C=C\CCCCCCCC(=O)N1CC[C@@H](OP(=O)([O-])OCC[N+](C)(C)C)C1	inhibition at 50 µM	1
CCCCC/C=C\C/C=C\CCCCCCCC(=O)N1CCC[C@H]1COP(=O)([O-])OCC[N+](C)(C)C	inhibition at 50 µM	0
